B1: library; numbered along this chain (parent)
chain: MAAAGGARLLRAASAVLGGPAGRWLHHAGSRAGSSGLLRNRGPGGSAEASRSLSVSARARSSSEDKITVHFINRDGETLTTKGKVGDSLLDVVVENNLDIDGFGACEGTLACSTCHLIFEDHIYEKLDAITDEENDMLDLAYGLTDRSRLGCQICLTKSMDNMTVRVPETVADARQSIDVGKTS

- Variants of: B1
- TEST: scaled log2 fold change in cell abundance, elesclomol vs control (0 = silent mean, 1 = nonsense mean) (scaled log2 ratio); higher = higher viability under elesclomol (loss of FDX1 cuproptosis function);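 further: variant abundance is its share of total variant reads in each endpoint sample, from next-generation sequencing of the integrated ORF PCR-amplified out of genomic DNA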
- PARTICULARS: with ABC1 FDX1 KO; elesclomol 5 nM; glucose 10 mM; 14 days
EXPERIMENTAL_READOUT: scaled log2 fold change

MUTATION_LABEL: L98D
OBS_VALUE: 0.341
--
MUTATION_LABEL: L37R
OBS_VALUE: -0.0271
--
MUTATION_LABEL: S14K
OBS_VALUE: -0.193
--
MUTATION_LABEL: D161R
OBS_VALUE: 0.243
--
MUTATION_LABEL: S159P
OBS_VALUE: -1.13
--
MUTATION_LABEL: V16I
OBS_VALUE: -0.31
--
MUTATION_LABEL: T183H
OBS_VALUE: -0.16
--
MUTATION_LABEL: R175N
OBS_VALUE: 0.0623
--
MUTATION_LABEL: V167S
OBS_VALUE: 0.152
--
MUTATION_LABEL: L53I
OBS_VALUE: -1.25
--
MUTATION_LABEL: A28I
OBS_VALUE: -0.00142
--
MUTATION_LABEL: L144W
OBS_VALUE: -0.112
--
MUTATION_LABEL: G5T
OBS_VALUE: -0.0306
--
MUTATION_LABEL: I118H
OBS_VALUE: 0.249
--
MUTATION_LABEL: L140Y
OBS_VALUE: -0.351
--
MUTATION_LABEL: P20G
OBS_VALUE: 0.37
--
MUTATION_LABEL: I130R
OBS_VALUE: -0.234
--
MUTATION_LABEL: I100H
OBS_VALUE: 0.0888
--
MUTATION_LABEL: G19A
OBS_VALUE: -0.167
--
MUTATION_LABEL: G18D
OBS_VALUE: -0.233
--
MUTATION_LABEL: R147K
OBS_VALUE: -0.354
--
MUTATION_LABEL: R41F
OBS_VALUE: 0.347
--
MUTATION_LABEL: S14Y
OBS_VALUE: 0.283
